# System: Histone deacetylase (Homo sapiens)
# test: Inhibition of HDAC at 200 uM relative to control
measure: inhibition (%)

Worked examples follow.
CC[C@@H]1NC(=O)[C@H](CCCNC(=N)N)NC(=O)[C@H]2CCCCN2C(=O)[C@@H](Cc2ccccc2)NC1=O
98
CC[C@@H]1NC(=O)[C@H](CCCNC(=N)N)NC(=O)[C@H]2CCCN2C(=O)[C@@H](Cc2ccccc2)NC1=O
97
CC[C@@H]1NC(=O)[C@H](CCCCNC(C)=O)NC(=O)[C@H]2CCCN2C(=O)[C@H](Cc2ccccc2)N(C)C1=O
86
CC[C@@H]1NC(=O)[C@H](CCCNC(=N)N)NC(=O)[C@H]2CCCN2C(=O)[C@H](Cc2ccccc2)NC1=O
97

A. CC[C@@H]1NC(=O)[C@H](CCCNC(=N)N)NC(=O)[C@H]2CCCN2C(=O)[C@@H]2Cc3ccccc3CN2C1=O
B. CC[C@@H]1NC(=O)[C@H](CCCCNC(C)=O)NC(=O)[C@H]2CCCN2C(=O)[C@H](Cc2ccccc2)NC1=O
Parameter check: reported inhibition is higher for which label, A or B ? // output: label of the selected item A
(A: 83%, B: 38%)
